TESTED ON: EeAChE (Electrophorus electricus acetylcholinesterase) (Electrophorus electricus, UniProt O42275)
Sequence (O42275 24-633): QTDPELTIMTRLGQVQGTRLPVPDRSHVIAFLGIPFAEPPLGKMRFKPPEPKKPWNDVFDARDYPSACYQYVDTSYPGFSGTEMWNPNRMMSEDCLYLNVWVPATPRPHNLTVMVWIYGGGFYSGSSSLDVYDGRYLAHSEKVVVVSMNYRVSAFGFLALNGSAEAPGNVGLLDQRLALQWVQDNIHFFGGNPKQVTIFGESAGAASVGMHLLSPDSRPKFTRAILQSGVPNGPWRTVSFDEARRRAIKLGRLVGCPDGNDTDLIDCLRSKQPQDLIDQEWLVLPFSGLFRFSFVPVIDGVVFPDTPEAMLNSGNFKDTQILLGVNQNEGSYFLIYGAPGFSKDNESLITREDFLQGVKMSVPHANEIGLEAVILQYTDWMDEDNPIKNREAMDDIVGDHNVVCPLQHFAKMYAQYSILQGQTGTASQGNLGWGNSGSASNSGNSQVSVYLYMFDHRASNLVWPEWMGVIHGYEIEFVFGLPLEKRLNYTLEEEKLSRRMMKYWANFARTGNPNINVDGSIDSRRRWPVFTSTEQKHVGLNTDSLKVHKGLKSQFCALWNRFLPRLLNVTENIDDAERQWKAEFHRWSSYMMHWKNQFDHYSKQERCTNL
RUN DESCRIPTION: AChE inhibition assay
Assay type: biochemical, electric eel
pIC50: −log10 of the molar value.
Assign Yes to entries whose pIC50 meets or exceeds 4; assign No to the rest.

>>> group_label("[H]/N=C(/N)NN=C(/C=C/c1ccc(C(C)(C)C)cc1)c1cn(Cc2ccc(-c3ccccc3)cc2)c2ccccc12")
"Yes"
>>> group_label("[H]/N=C(/N)NN=C(/C=C/c1ccc(C)cc1)c1cn(Cc2ccccc2)c2ccccc12")
"No"
>>> group_label("[H]/N=C(/N)NN=C(/C=C/c1ccc(C(C)(C)C)cc1)c1cn(Cc2ccccc2)c2ccccc12")
"Yes"
>>> group_label("[H]/N=C(/N)NN=C(/C=C/c1ccc(C(C)C)cc1)c1cn(Cc2ccccc2)c2ccccc12")
"No"
>>> group_label("[H]/N=C(/N)NN=C(/C=C/c1ccccc1)c1cn(Cc2ccc(F)cc2F)c2ccccc12")
"Yes"
>>> group_label("[H]/N=C(/N)NN=C(/C=C/c1ccc(C(F)(F)F)cc1)c1cn(Cc2ccc(CCCC)cc2)c2ccccc12")
"Yes"
>>> group_label("[H]/N=C(/N)NN=C(/C=C/c1cccc(OC)c1)c1cn(Cc2ccccc2)c2ccccc12")
"No"

----------
IC50 overview
TESTED ON: hBACE 1 (Homo sapiens)
Sequence (P56817 46-501): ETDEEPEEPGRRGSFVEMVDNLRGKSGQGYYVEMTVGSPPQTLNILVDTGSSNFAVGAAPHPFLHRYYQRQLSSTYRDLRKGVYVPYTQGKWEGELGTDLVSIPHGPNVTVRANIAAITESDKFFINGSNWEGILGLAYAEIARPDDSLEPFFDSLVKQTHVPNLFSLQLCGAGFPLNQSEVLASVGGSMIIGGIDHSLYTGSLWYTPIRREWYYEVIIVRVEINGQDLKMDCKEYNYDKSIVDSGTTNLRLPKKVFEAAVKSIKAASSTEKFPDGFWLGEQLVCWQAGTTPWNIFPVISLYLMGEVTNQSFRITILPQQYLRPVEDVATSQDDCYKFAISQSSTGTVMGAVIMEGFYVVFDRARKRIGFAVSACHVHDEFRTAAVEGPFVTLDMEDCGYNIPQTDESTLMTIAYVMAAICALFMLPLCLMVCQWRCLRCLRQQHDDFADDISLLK
RUN DESCRIPTION: BACE 1 FRET inhibition assay
Type: biochemical
STATED CONDITIONS: hBACE 1 IC50 (μM) ± SD, mean ± SD, n = 3; human BACE 1; FRET assay
ASSAY READOUT: IC50 (µM)

>>> readout_value("[H]/N=C(/N)NN=C(/C=C/c1ccc(C(C)C)cc1)c1cn(Cc2ccccc2)c2ccccc12 [Compound 1d]")
11.7
>>> readout_value("[H]/N=C(/N)NN=C(/C=C/c1ccccc1)c1cn(Cc2ccccc2F)c2ccccc12 [Compound 2h]")
143
>>> readout_value("[H]/N=C(/N)NN=C(/C=C/c1ccc(C(C)(C)C)cc1)c1cn(Cc2ccc(C(F)(F)F)cc2)c2ccccc12 [Compound 3k]")
139
>>> readout_value("[H]/N=C(/N)NN=C(/C=C/c1ccc(C(C)C)cc1)c1cn(Cc2cc(F)ccc2F)c2ccccc12 [Compound 3f]")
82.1

----------
TESTED ON: EeAChE (Electrophorus electricus acetylcholinesterase) (Electrophorus electricus, UniProt O42275)
RUN DESCRIPTION: AChE inhibition assay
Assay type: biochemical, electric eel
# note: boundary value 80 µM maps to not fulfilled; IC50 below it maps to fulfilled

>>> group_label("[H]/N=C(/N)NN=C(/C=C/c1ccc(C(C)(C)C)cc1)c1cn(Cc2ccc(C(F)(F)F)cc2)c2ccccc12")
"not fulfilled"
>>> group_label("[H]/N=C(/N)NN=C(/C=C/c1ccc(Cl)cc1)c1cn(Cc2ccccc2)c2ccccc12")
"not fulfilled"
>>> group_label("[H]/N=C(/N)NN=C(/C=C/c1ccccc1)c1cn(Cc2ccc(Br)cc2F)c2ccccc12")
"fulfilled"
>>> group_label("[H]/N=C(/N)NN=C(/C=C/c1cccc(F)c1)c1cn(Cc2ccccc2)c2ccccc12")
"fulfilled"
>>> group_label("[H]/N=C(/N)NN=C(/C=C/c1cc(OC)ccc1OC)c1cn(Cc2ccc(CCCC)cc2)c2ccccc12")
"fulfilled"
>>> group_label("[H]/N=C(/N)NN=C(/C=C/c1ccc(OCc2ccccc2)cc1)c1cn(Cc2cccc(OCc3ccccc3)c2)c2ccccc12")
"fulfilled"
>>> group_label("[H]/N=C(/N)NN=C(/C=C/c1ccc(F)c(F)c1)c1cn(Cc2ccccc2)c2ccccc12")
"fulfilled"

----------
TESTED ON: hBACE 1 (Homo sapiens)
RUN DESCRIPTION: BACE 1 FRET inhibition assay
Type: biochemical
STATED CONDITIONS: hBACE 1 PIC50 (μM), human BACE 1
IC50 overview
ASSAY READOUT: IC50 (µM)

>>> readout_value("[H]/N=C(/N)NN=C(/C=C/c1ccc(F)c(F)c1)c1cn(Cc2ccccc2)c2ccccc12")
72.4
>>> readout_value("[H]/N=C(/N)NN=C(/C=C/c1ccccc1)c1cn(Cc2cccc(C#N)c2)c2ccccc12")
178
>>> readout_value("[H]/N=C(/N)NN=C(/C=C/c1ccc(OCc2ccccc2)cc1)c1cn(Cc2ccc(C)cc2)c2ccccc12")
107
>>> readout_value("[H]/N=C(/N)NN=C(/C=C/c1cccc(OC)c1OC)c1cn(Cc2ccccc2)c2ccccc12")
135
>>> readout_value("[H]/N=C(/N)NN=C(/C=C/c1ccccc1)c1cn(Cc2ccc(Cl)cc2)c2ccccc12")
214
>>> readout_value("[H]/N=C(/N)NN=C(/C=C/c1ccc(C#N)cc1)c1cn(Cc2ccccc2)c2ccccc12")
9.33
>>> readout_value("[H]/N=C(/N)NN=C(/C=C/c1ccc(C(F)(F)F)cc1)c1cn(Cc2ccc(CCCC)cc2)c2ccccc12")
182
>>> readout_value("[H]/N=C(/N)NN=C(/C=C/c1ccccc1)c1cn(Cc2ccccc2F)c2ccccc12")
145
>>> readout_value("[H]/N=C(/N)NN=C(/C=C/c1ccc(Br)cc1)c1cn(Cc2ccccc2)c2ccccc12")
97.7
>>> readout_value("[H]/N=C(/N)NN=C(/C=C/c1ccc(C(C)(C)C)cc1)c1cn(Cc2ccc(Br)cc2)c2ccccc12")
178
>>> readout_value("[H]/N=C(/N)NN=C(/C=C/c1ccc(C(C)C)cc1)c1cn(Cc2ccccc2)c2ccccc12")
11.7
>>> readout_value("[H]/N=C(/N)NN=C(/C=C/c1ccccc1)c1cn(Cc2ccccc2C#N)c2ccccc12")
195
>>> readout_value("[H]/N=C(/N)NN=C(/C=C/c1cc(OC)ccc1OC)c1cn(Cc2ccccc2)c2ccccc12")
72.4
>>> readout_value("[H]/N=C(/N)NN=C(/C=C/c1ccc(Cl)cc1)c1cn(Cc2ccccc2)c2ccccc12")
16.6
>>> readout_value("[H]/N=C(/N)NN=C(/C=C/c1ccc(C(C)(C)C)cc1)c1cn(Cc2ccc(-c3ccccc3)cc2)c2ccccc12")
200

----------
TESTED ON: hBACE 1 (Homo sapiens)
RUN DESCRIPTION: BACE 1 FRET inhibition assay
Format: biochemical
STATED CONDITIONS: hBACE 1 IC50 (μM) ± SD, mean ± SD, n = 3; human BACE 1; FRET assay
IC50 overview
ASSAY READOUT: IC50 (µM)

>>> readout_value("[H]/N=C(/N)NN=C(/C=C/c1ccc(C)cc1)c1cn(Cc2ccccc2)c2ccccc12")
132
>>> readout_value("[H]/N=C(/N)NN=C(/C=C/c1ccc(OC)c(OC)c1)c1cn(Cc2ccccc2)c2ccccc12")
59.5
>>> readout_value("[H]/N=C(/N)NN=C(/C=C/c1ccc(C(F)(F)F)cc1)c1cn(Cc2ccc(CCCC)cc2)c2ccccc12")
182
>>> readout_value("[H]/N=C(/N)NN=C(/C=C/c1ccccc1[N+](=O)[O-])c1cn(Cc2ccccc2)c2ccccc12")
12.3

----------
TESTED ON: EeAChE (Electrophorus electricus acetylcholinesterase) (Electrophorus electricus, UniProt O42275)
RUN DESCRIPTION: AChE inhibition assay
Type: biochemical, electric eel
ASSAY READOUT: IC50

>>> readout_value("[H]/N=C(/N)NN=C(/C=C/c1ccc(OCc2ccccc2)cc1)c1cn(Cc2ccc(C)cc2)c2ccccc12")
"144 µM"
>>> readout_value("[H]/N=C(/N)NN=C(/C=C/c1ccccc1)c1cn(Cc2ccc(Cl)cc2)c2ccccc12")
"42.8 µM"
>>> readout_value("[H]/N=C(/N)NN=C(/C=C/c1ccc(OC)c(OC)c1)c1cn(Cc2cc(OC)cc(OC)c2)c2ccccc12")
"22 µM"
>>> readout_value("[H]/N=C(/N)NN=C(/C=C/c1ccccc1)c1cn(Cc2cc(C(F)(F)F)cc(C(F)(F)F)c2)c2ccccc12")
"56.6 µM"
>>> readout_value("[H]/N=C(/N)NN=C(/C=C/c1ccc(C(C)(C)C)cc1)c1cn(Cc2ccc(Br)cc2)c2ccccc12")
"156 µM"
>>> readout_value("[H]/N=C(/N)NN=C(/C=C/c1cccc(OCc2ccccc2)c1)c1cn(Cc2ccccc2)c2ccccc12")
"127 µM"
>>> readout_value("[H]/N=C(/N)NN=C(/C=C/c1ccc(C#N)cc1)c1cn(Cc2ccccc2)c2ccccc12")
"60.9 µM"
>>> readout_value("[H]/N=C(/N)NN=C(/C=C/c1ccc(C(C)C)cc1)c1cn(Cc2cc(F)ccc2F)c2ccccc12")
"167 µM"
>>> readout_value("[H]/N=C(/N)NN=C(/C=C/c1ccccc1[N+](=O)[O-])c1cn(Cc2ccccc2)c2ccccc12")
"216 µM"
>>> readout_value("[H]/N=C(/N)NN=C(/C=C/c1ccccc1)c1cn(Cc2ccccc2F)c2ccccc12")
"62.9 µM"
>>> readout_value("[H]/N=C(/N)NN=C(/C=C/c1ccc(OC)c(OC)c1)c1cn(Cc2ccccc2)c2ccccc12")
"77.1 µM"
>>> readout_value("[H]/N=C(/N)NN=C(/C=C/c1ccccc1)c1cn(Cc2cc(OC)cc(OC)c2)c2ccccc12")
"55.6 µM"
>>> readout_value("[H]/N=C(/N)NN=C(/C=C/c1ccc(Br)cc1)c1cn(Cc2ccccc2)c2ccccc12")
"73.1 µM"
>>> readout_value("[H]/N=C(/N)NN=C(/C=C/c1ccccc1)c1cn(Cc2ccc(F)cc2C(F)(F)F)c2ccccc12")
"169 µM"
>>> readout_value("[H]/N=C(/N)NN=C(/C=C/c1ccc(N(C)C)cc1)c1cn(Cc2ccccc2)c2ccccc12")
"78.2 µM"
